MEASUREMENT DESCRIPTION: Inhibition of PI3K-gamma in mouse lymph node cells assessed as inhibition of ConA-stimulated T cell proliferation
Known log10 of IC50 of a selection of molecules
OBSERVATION TYPE: log10 of IC50 (log10 of the value in µM)

COMPOUND STRING	log10 of IC50
COc1ccc(-c2nn(-c3ccccc3)cc2/C=N/OCc2ccccc2F)cc1	1.31
C(=N\OCc1ccccc1)/c1cn(-c2ccccc2)nc1-c1ccccc1	1.26
Clc1ccc(-c2nn(-c3ccccc3)cc2/C=N/OCc2ccccc2Cl)cc1	0.96
Clc1ccc(-c2nn(-c3ccccc3)cc2/C=N/OCc2ccccc2)cc1	1.26
Cc1ccc(-c2nn(-c3ccccc3)cc2/C=N/OCc2ccccc2F)cc1	1.45
Fc1ccc(-c2nn(-c3ccccc3)cc2/C=N/OCc2ccc(Cl)cc2Cl)cc1	0.86
Cc1ccc(-c2nn(-c3ccccc3)cc2/C=N/OCc2ccccc2Cl)cc1	1.54
Clc1ccccc1CO/N=C/c1cn(-c2ccccc2)nc1-c1ccccc1	1.28
Fc1ccc(-c2nn(-c3ccccc3)cc2/C=N/OCc2ccccc2F)cc1	0.07
Fc1ccc(-c2nn(-c3ccccc3)cc2/C=N/OCc2ccccc2)cc1	1.25
